tested on: SR leukemia; assay: NCI tumour cell line growth inhibition, 48 h
OBSERVABLE: TGI

compound=O=C(CN1C(=O)c2ccccc2C1=O)NC1(C(=O)O)CCCC1 obs_value="> 100 µM"
compound="O=C1NC(N2CCCC(CO)C2)=N/C1=C\\c1ccc(O)cc1 (stereo not given)" obs_value="> 100 µM"
compound=C/C(=C1/N=C(c2ccccc2)OC1=O)c1cccs1 obs_value="> 100 µM"
compound=COc1ccc(N2CCN(CC(=O)N3CCN(c4nnc(-c5ccc(Cl)cc5)c(-c5ccc(Cl)cc5)n4)CC3)CC2)cc1 obs_value="8.65 µM"
compound="COc1cccc(C(=O)C(O)c2cccc(OC)c2OC)c1OC (stereo not given)" obs_value="> 100 µM"
